Test system: Splenocyte
ASSAY NOTES: Cytotoxicity against mouse splenocytes after 48 hrs by MTT assay
Format: cell-based
READOUT: CC50

Quick note, CC50 for CC(=O)O[C@@H]1C[C@@]23C[C@@]24CC[C@H](O[C@@H]2O[C@H](CO)[C@H](O)[C@H](O)[C@H]2O)C(C)(C)[C@@H]4CC[C@H]3[C@]2(C)C[C@]3(O)O[C@H](C(=O)[C@@H]4OC4(C)C)[C@@H](C)[C@@H]3[C@@]12C landed at 88.8 µM

###

ASSAY NOTES: Inhibition of C57BL/6 mouse CD4-positive T cell differentiation at 12.5 uM relative to control
Type: functional
CONDITION PARAMETERS: C57BL/6, CD4-positive T cell
Outcome: 1 (yes) for inhibition at 12.5 µM of at least 50%; 0 (no) for anything lower.

Solved cases (4 shown):
Task item: Given the entry CC(=O)O[C@H]([C@H]1C[C@@H](C)C2=C(O1)[C@@H](O)[C@@]1(C)C3=CC[C@H]4C(C)(C)[C@@H](O[C@@H]5O[C@H](CO)[C@H](O)[C@H](O)[C@H]5O)CC[C@@]45C[C@@]35CC[C@]21C)C(C)(C)O , answer whether its inhibition at 12.5 µM meets or surpasses 50%.
Reply: 1 (yes)

Task item: For this compound, is measured inhibition at 12.5 µM 50% or higher? CC(=O)O[C@@H]1C[C@@]23C[C@@]24CC[C@H](O[C@@H]2O[C@H](CO)[C@H](O)[C@H](O)[C@H]2O)C(C)(C)[C@@H]4CC=C3[C@]2(C)C[C@@]3(O)O[C@H](C(=O)[C@H]4OC4(C)C)[C@@H](C)[C@@H]3[C@@]12C
Reply: 1 (yes)

Task item: Item CC(=O)O[C@@H]1C[C@@]23C[C@@]24CC[C@H](O[C@@H]2OC[C@@H](O)[C@H](O)[C@H]2O)C(C)(C)[C@@H]4CC=C3[C@]2(C)C[C@]3(O)O[C@H](C(=O)[C@@H]4OC4(C)C)[C@@H](C)[C@@H]3[C@@]12C with inhibition at 12.5 µM of 50% or above?
Reply: 0 (no)

Task item: For this compound, is measured inhibition at 12.5 µM 50% or higher? CC(=O)O[C@H]([C@H]1C[C@@H](C)C2=C(O1)[C@@H](O)[C@@]1(C)[C@@H]3CC[C@H]4C(C)(C)[C@@H](O[C@@H]5O[C@H](CO)[C@H](O)[C@H](O)[C@H]5O)CC[C@@]45C[C@@]35CC[C@]21C)C(C)(C)O
Reply: 0 (no)

We now examine a further compound.
Task item: I'd appreciate it if you could say whether CC(=O)O[C@@H]1C[C@@]23C[C@@]24CC[C@H](O[C@@H]2O[C@H](CO)[C@H](O)[C@H](O)[C@H]2O)C(C)(C)[C@@H]4CC[C@H]3[C@]2(C)C[C@]3(O)O[C@H](C(=O)[C@@H]4OC4(C)C)[C@@H](C)[C@@H]3[C@@]12C has inhibition at 12.5 µM at least equal to 50%.
Reply: 1 (yes)

###

ASSAY NOTES: Inhibition of C57BL/6 mouse CD4-positive T cell differentiation at 6.25 uM relative to control
Type: functional
CONDITION PARAMETERS: C57BL/6, CD4-positive T cell
So I've got a bunch of compounds here, and I need their inhibition at 6.25 µM values.
One number for each entry, in %.

So for CC(=O)O[C@@H]1C[C@@]23C[C@@]24CC[C@H](O[C@@H]2O[C@H](CO)[C@H](O)[C@H](O)[C@H]2O)C(C)(C)[C@@H]4CC=C3[C@]2(C)C[C@@]3(O)O[C@H](C(=O)[C@H]4OC4(C)C)[C@@H](C)[C@@H]3[C@@]12C , the logged inhibition at 6.25 µM turned out to be 8.9

// inhibition at 6.25 µM lookup, compound = CC(=O)O[C@@H]1C[C@@]23C[C@@]24CC[C@H](O[C@@H]2O[C@H](CO)[C@H](O)[C@H](O)[C@H]2O)C(C)(C)[C@@H]4CC[C@H]3[C@]2(C)C[C@]3(O)O[C@H](C(=O)[C@@H]4OC4(C)C)[C@@H](C)[C@@H]3[C@@]12C , result: 29.6

# inhibition at 6.25 µM of C[C@@H]1C[C@H]([C@@H](O)C(C)(C)O)O[C@]2(O)[C@@H](O)[C@@]3(C)C4=CC[C@H]5C(C)(C)[C@@H](O[C@@H]6O[C@H](CO)[C@H](O)[C@H](O)[C@H]6O)CC[C@@]56C[C@@]46CC[C@]3(C)[C@@H]12 = 10.3

Entry CC(=O)O[C@@H]1C[C@@]23C[C@@]24CC[C@H](O[C@@H]2OC[C@@H](O)[C@H](O)[C@H]2O)C(C)(C)[C@@H]4CC=C3[C@]2(C)C[C@]3(O)O[C@H](C(=O)[C@@H]4OC4(C)C)[C@@H](C)[C@@H]3[C@@]12C ; inhibition at 6.25 µM = 5.3

Documented inhibition at 6.25 µM of CC(=O)O[C@H]([C@H]1C[C@@H](C)C2=C(O1)[C@@H](O)[C@@]1(C)[C@@H]3CC[C@H]4C(C)(C)[C@@H](O[C@@H]5O[C@H](CO)[C@H](O)[C@H](O)[C@H]5O)CC[C@@]45C[C@@]35CC[C@]21C)C(C)(C)O : 10.2

Next item in the queue.
// CC(=O)O[C@H]([C@H]1C[C@@H](C)C2=C(O1)[C@@H](O)[C@@]1(C)C3=CC[C@H]4C(C)(C)[C@@H](O[C@@H]5O[C@H](CO)[C@H](O)[C@H](O)[C@H]5O)CC[C@@]45C[C@@]35CC[C@]21C)C(C)(C)O : inhibition at 6.25 µM value = 21.6
